# Test system: tet operator sequence
# protocol_summary: β-galactosidase activity of a tetracycline-regulated promoter in transformed E. coli with revTetR, in the presence and absence of anhydrotetracycline (atc)
# Type: cell-based, Escherichia coli
# condition_description: RevTetR isolate cultured in the presence of anhydrotetracycline (ATC)
# Description: The relative activity of revTetR repressors was determined at 28° C. and 37° C. for each clone by measuring β-galactosidase activity of a tetracycline-regulated promoter in transformed Escherichia coli in the presence and absence of the tetracycline analog, anhydrotetracycline (atc). The relative β-galactosidase activity was measured in standard Miller units and is presented as the percent of maximal expression as measured in the absence of Tet repressor. […]
measured_quantity: β-Galactosidase Activity, Cultured With ATC
Returns: the value as a bare number; no unit string appended.

molecule	measurement
TetRrevAD3/5: revTetR(BD) L17L N18K E19V I22T 53Y A54S (protein, Modified tetracycline repressor, revTetR(BD) L17L N18K E19V I22T 53Y A54S) MSRLDKSKVINSALELLKVVGTEGLTTRKLAQKLGVEQPTLYWHVKNKRALLYSLAVEILARHHDYSLPAAGESWQSFLRNNAMSFRRALLRYRDGAKVHLGTRPDEKQYDTVETQLRFMTENGFSLRDGLYAISAVSHFTLGAVLEQQEHTAALTDRPAAPDENLPPLLREALQIMDSDDGEQAFLHGLESLIRGFEVQLTALLQIV	1.1481
TetRrevAD3/7: revTetR(BD) L17M E19D L52L D53Y A54A A56E (protein, Modified tetracycline repressor, revTetR(BD) L17M E19D L52L D53Y A54A A56E) MSRLDKSKVINSALELMNDVGIEGLTTRKLAQKLGVEQPTLYWHVKNKRALLYALEVEILARHHDYSLPAAGESWQSFLRNNAMSFRRALLRYRDGAKVHLGTRPDEKQYDTVETQLRFMTENGFSLRDGLYAISAVSHFTLGAVLEQQEHTAALTDRPAAPDENLPPLLREALQIMDSDDGEQAFLHGLESLIRGFEVQLTALLQIV	2.4531
TetRrev28/8: revTetR(BD) L14S N18Y I22F L25L (protein, Modified tetracycline repressor, revTetR(BD) L14S N18Y I22F L25L) MSRLDKSKVINSASELLYEVGFEGLTTRKLAQKLGVEQPTLYWHVKNKRALLDALAVEILARHHDYSLPAAGESWQSFLRNNAMSFRRALLRYRDGAKVHLGTRPDEKQYDTVETQLRFMTENGFSLRDGLYAISAVSHFTLGAVLEQQEHTAALTDRPAAPDENLPPLLREALQIMDSDDGEQAFLHGLESLIRGFEVQLTALLQIV	4.4123
TetRrev28/23: revTetR(BD) A13A L14S N18K E23V (protein, Modified tetracycline repressor, revTetR(BD) A13A L14S N18K E23V) MSRLDKSKVINSASELLKEVGIVGLTTRKLAQKLGVEQPTLYWHVKNKRALLDALAVEILARHHDYSLPAAGESWQSFLRNNAMSFRRALLRYRDGAKVHLGTRPDEKQYDTVETQLRFMTENGFSLRDGLYAISAVSHFTLGAVLEQQEHTAALTDRPAAPDENLPPLLREALQIMDSDDGEQAFLHGLESLIRGFEVQLTALLQIV	2.9867

# input for lookup
Looking for the measured β-Galactosidase Activity, Cultured With ATC of TetRrev28/16: revTetR(BD) L14L E15A L17G L25V (protein, Modified tetracycline repressor, revTetR(BD) L14L E15A L17G L25V) MSRLDKSKVINSALALGNEVGIEGVTTRKLAQKLGVEQPTLYWHVKNKRALLDALAVEILARHHDYSLPAAGESWQSFLRNNAMSFRRALLRYRDGAKVHLGTRPDEKQYDTVETQLRFMTENGFSLRDGLYAISAVSHFTLGAVLEQQEHTAALTDRPAAPDENLPPLLREALQIMDSDDGEQAFLHGLESLIRGFEVQLTALLQIV , can you help?
0.9453
